Provenance of the data: paper PMC3230568

- measurement.target: p53 DBD 94-288 (Homo sapiens, UniProt P04637)
- Sequence (P04637 94-288): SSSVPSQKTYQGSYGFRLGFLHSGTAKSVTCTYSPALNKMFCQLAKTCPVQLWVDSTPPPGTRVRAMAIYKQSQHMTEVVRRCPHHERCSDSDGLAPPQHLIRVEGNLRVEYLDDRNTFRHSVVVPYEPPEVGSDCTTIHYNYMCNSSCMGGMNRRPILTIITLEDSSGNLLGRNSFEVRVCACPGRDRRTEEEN
- test.name: atomic force spectroscopy
measure.name: pKd
Reminder that pKd means the negative base-10 logarithm of the concentration expressed in mol/L.

Exam item: In one line, give reported pKd of the entry TVNLSHPGNLPKNVMGHNWVLSTAADMQ [p28 (azurin fragment, Cys-p28) 50-77] .
Marked response: 6.20
